- target_entity: T1, CD3 on Jurkat cells (human)
- T1 construct: native, on the surface of Jurkat cells; The sheets print only 'Jurkat'; also called human CD3; TCR/CD3 complex on the human T cell line Jurkat
- measurement_protocol: FACS on Jurkat cells, Alexa 488 secondary antibody, MFI [a]
measured_property: EC50 (read off the curve)

Notebook: hAb001-23 (antibody, V domains shown, Humanized; constant regions not specified) VH: QVQLVQSGAEVKKPGASVKVSCKASGYSFTNYYMHWVRQAPGQRLEWIGWTYPGNNNIKYNEKFKGRVTITADTSASTAYMELSSLRSEDTAVYYCARDGYGYYFFDYWGQGTLVTVSS VL: DIVMTQSPDSLAVSLGERATMSCKSSQSLLNNRTRKNYLAWYQQKPGQPPKLLIYWASTRESGVPDRFSGSGSGTDFTLTISSLQAEDVAVYYCKQSYTLRTFGGGTKLEIK , EC50 (read off the curve) read as ~0.3 nM

Recorded result, hAb001-28 (antibody, V domains shown, Humanized; constant regions not specified) VH: QVQLVQSGAEVKKPGASVKVSCKASGYSFTNYYMHWVRQAPGQRLEWIGWTYPGNNNIKYNEKFKGRATITADTSASTAYMELSSLRSEDTAVYYCARDGYGYYFFDYWGQGTLVTVSS VL: DIVMTQSPDSLAVSLGERATMSCKSSQSLLNNRTRKNYLAWYQQKPGQPPKLLIYWASTRESGVPDRFTGSGSGTDFTLTISSLQAEDVAVYYCKQSYTLRTFGGGTKLEIK , EC50 (read off the curve): ~0.3 nM

Given item hAb001-22 (antibody, V domains shown, Humanized; constant regions not specified) VH: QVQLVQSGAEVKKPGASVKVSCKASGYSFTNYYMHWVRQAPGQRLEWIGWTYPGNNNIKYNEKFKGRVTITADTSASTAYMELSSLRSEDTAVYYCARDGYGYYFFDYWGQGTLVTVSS VL: DIVMTQSPDSLAVSLGERATINCKSSQSLLNNRTRKNYLAWYQQKPGQPPKLLIYWASTRESGVPDRFTGSGSGTDFTLTISSLQAEDVAVYYCKQSYTLRTFGGGTKLEIK , the value recorded as its EC50 (read off the curve) is ~0.3 nM
